Taken from patent US20240270821A1.

# STUDY_SYSTEM: hGLP-1R (Homo sapiens, UniProt P43220)
# Sequence (P43220 24-463): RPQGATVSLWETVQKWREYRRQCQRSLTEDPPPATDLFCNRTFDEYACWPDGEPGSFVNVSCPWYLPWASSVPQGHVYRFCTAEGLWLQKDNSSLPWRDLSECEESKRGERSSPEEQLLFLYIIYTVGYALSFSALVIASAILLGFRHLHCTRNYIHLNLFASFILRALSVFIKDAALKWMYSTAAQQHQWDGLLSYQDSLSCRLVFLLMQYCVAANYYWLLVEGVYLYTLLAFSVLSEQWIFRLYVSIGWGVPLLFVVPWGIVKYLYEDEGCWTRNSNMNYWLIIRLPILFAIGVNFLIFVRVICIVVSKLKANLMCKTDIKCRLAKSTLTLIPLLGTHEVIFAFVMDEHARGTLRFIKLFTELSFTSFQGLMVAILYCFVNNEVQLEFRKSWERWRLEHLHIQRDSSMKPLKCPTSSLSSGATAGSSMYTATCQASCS
# MEASUREMENT_NOTES: cell-based or functional assay
Starred links: 1 amine or outer side, 2 acyl side, 3 side chain; linkers in the order of their positions; H or OH if unused. Non-standard residues stand in square brackets, D forms with d. Groups on a side chain read outwards from the residue. No end group written: not given here. *: point of attachment. C18 diacid = O=C(O)CCCCCCCCCCCCCCCCC(=O)*; γGlu = O=C(O)[C@H](CCC(=O)[*:2])N[*:1]; αMeL = CC(C)C[C@](C)(N)C(=O)O; Dab = NCC[C@H](N)C(=O)O; Dap = NC[C@H](N)C(=O)O; AEEA = NCCOCCOCC(=O)O; Aib = CC(C)(N)C(=O)O
Entries and their cAMP Rel EC50, nM (in the presence of 1% HSA) values follow.
Give your result in nM as a bare value.

Worked set:
# BINDER, EXPERIMENTAL_VALUE
rows = [
    ("YXQGTFTSDFSRXLDKKAQXAFIEYLLEGGPSSGAPPPSGS (synthetic construct; SITE 2: note = 2-Aminoisobutyric Acid; SITE 13: note = alpha-methyl-leucine; SITE 17: note = Lysine is chemically modified through conjugation of the epsilon-amino group of the Lysine side chain with (2-[2-(2-Amino-ethoxy)-ethoxy]-acetyl)-(gamma-Glu)-CO-(CH2) 16-CO2H; SITE 20: n) [Example 143]", 594),
    ("YXQGTFTSDFSXXLDKKAQXAFIEYLLEGGPSSGAPPPGGS (synthetic construct; SITE 2: note = 2-Aminoisobutyric Acid; SITE 12: note = L-ornithine; SITE 13: note = alpha-methyl-leucine; SITE 17: note = Lysine is chemically modified through conjugation of the epsilon-amino group of the Lysine side chain with (2-[2-(2-Amino-ethoxy)-ethoxy]-acetyl)-(gamma-Glu)) [Example 62]", 299),
    ("YXQGTFTSDFSXXLDKKAQXAFIEYLLEGGPSSGAPPPSEG (synthetic construct; SITE 2: note = 2-Aminoisobutyric Acid; SITE 12: note = L-ornithine; SITE 13: note = alpha-methyl-leucine; SITE 17: note = Lysine is chemically modified through conjugation of the epsilon-amino group of the Lysine side chain with (2-[2-(2-Amino-ethoxy)-ethoxy]-acetyl)-(gamma-Glu)) [Example 50]", 1110),
]

Query: Tell me the measured cAMP Rel EC50, nM (in the presence of 1% HSA) of Y[Aib]QGTFTSDFS[Dap][αMeL]LDKK([AEEA-γGlu-C18 diacid])AQ[Aib]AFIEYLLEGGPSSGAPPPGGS-NH2 (ends and bridges not checked) [Example 68] , please.
Response: 612

Query: May I ask what cAMP Rel EC50, nM (in the presence of 1% HSA) has been recorded for YXQGTFTSDFSXXLDKKAQXAFIEWLLEGGXSSGAPPPSGE (synthetic construct; SITE 2: note = 2-Aminoisobutyric Acid; SITE 12: note = L-ornithine; SITE 13: note = alpha-methyl-leucine; SITE 17: note = Lysine is chemically modified through conjugation of the epsilon-amino group of the Lysine side chain with (2-[2-(2-Amino-ethoxy)-ethoxy]-acetyl)-(gamma-Glu)) [Example 104] ?
Response: 698

Query: # get_value(readout='cAMP Rel EC50, nM (in the presence of 1% HSA)', item= Y[Aib]QGTFTSDFS[Dab][αMeL]LDKK([AEEA-γGlu-C18 diacid])AQ[Aib]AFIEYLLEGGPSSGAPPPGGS-NH2 [Example 67] )
Response: 683

Query: Endpoint output: cAMP Rel EC50, nM (in the presence of 1% HSA) of YXQGTFTSDFSXXLDKKAQXAFIEYLLAGGPSSGAPPPEGE (synthetic construct; SITE 2: note = 2-Aminoisobutyric Acid; SITE 12: note = L-ornithine; SITE 13: note = alpha-methyl-leucine; SITE 17: note = Lysine is chemically modified through conjugation of the epsilon-amino group of the Lysine side chain with (2-[2-(2-Amino-ethoxy)-ethoxy]-acetyl)-(gamma-Glu)) [Example 99] . Value?
Response: 588

Query: Can you look up the measured cAMP Rel EC50, nM (in the presence of 1% HSA) of YXQGTFTSDFSXXLDKKAQXAFIEYLLEAGPSSGAPPPSGE (synthetic construct; SITE 2: note = 2-Aminoisobutyric Acid; SITE 12: note = L-ornithine; SITE 13: note = alpha-methyl-leucine; SITE 17: note = Lysine is chemically modified through conjugation of the epsilon-amino group of the Lysine side chain with (2-[2-(2-Amino-ethoxy)-ethoxy]-acetyl)-(gamma-Glu)) [Example 129] for me?
Response: 284

Query: What does the record list as cAMP Rel EC50, nM (in the presence of 1% HSA) for YXQGTFTSDFSKXLDKKAQXAFIEYLLEGGPSSGAPPPSEG (not fully specified; synthetic construct; SITE 2: note = 2-Aminoisobutyric Acid; SITE 13: note = alpha-methyl-leucine; SITE 17: note = Lysine is chemically modified through conjugation of the epsilon-amino group of the Lysine side chain with (2-[2-(2-Amino-ethoxy)-ethoxy]-acetyl)-(gamma-Glu)-CO-(CH2) 16-CO2H; SITE 20: n) [Example 48] ?
Response: 570

Query: Tell me the measured cAMP Rel EC50, nM (in the presence of 1% HSA) of YXQGTFTSDFSKXLDKKAQXAFIEYLLEXGPSSGAPPPGEG (synthetic construct; SITE 2: note = 2-Aminoisobutyric Acid; SITE 13: note = alpha-methyl-leucine; SITE 17: note = Lysine is chemically modified through conjugation of the epsilon-amino group of the Lysine side chain with (2-[2-(2-Amino-ethoxy)-ethoxy]-acetyl)2-(gamma-Glu)-CO-(CH2 )18-CO2H; SITE 20:) [Example 55] , please.
Response: 479

Query: Please give the measured cAMP Rel EC50, nM (in the presence of 1% HSA) for this binder: YXQGTFTSDFSXXLDKKAQXAFIEYLLEXGPSSGAPPPGEG (synthetic construct; SITE 2: note = 2-Aminoisobutyric Acid; SITE 12: note = L-ornithine; SITE 13: note = alpha-methyl-leucine; SITE 17: note = Lysine is chemically modified through conjugation of the epsilon-amino group of the Lysine side chain with (2-[2-(2-Amino-ethoxy)-ethoxy]-acetyl)2-(gamma-Glu)) [Example 70]
Response: 620

Query: # query: cAMP Rel EC50, nM (in the presence of 1% HSA) of entry YXQGTFTSDFSKXLDKKAQXAFIEYLLEGGPSSGAPPPXEG (synthetic construct; SITE 2: note = 2-Aminoisobutyric Acid; SITE 13: note = alpha-methyl-leucine; SITE 17: note = Lysine is chemically modified through conjugation of the epsilon-amino group of the Lysine side chain with (2-[2-(2-Amino-ethoxy)-ethoxy]-acetyl)-(gamma-Glu)-CO-(CH2) 18-CO2H; SITE 20: n) [Example 52]
Response: 1250

Query: Param item = YXQGTFTSDFSXXLDKKAQXAFIEWLLEGGHSSGEPPPSGE (synthetic construct; SITE 2: note = 2-Aminoisobutyric Acid; SITE 12: note = L-ornithine; SITE 13: note = alpha-methyl-leucine; SITE 17: note = Lysine is chemically modified through conjugation of the epsilon-amino group of the Lysine side chain with (2-[2-(2-Amino-ethoxy)-ethoxy]-acetyl)-(gamma-Glu)) [Example 124] ; retrieve measured cAMP Rel EC50, nM (in the presence of 1% HSA).
Response: 801
